EC50 values by entry
Assayed target: human MC3 receptor (Homo sapiens, UniProt P41968)
Construct: stably transfected with full length cDNA encoding human MC1 or MC3 receptors; 'respectively')
Sequence (P41968 whole entry): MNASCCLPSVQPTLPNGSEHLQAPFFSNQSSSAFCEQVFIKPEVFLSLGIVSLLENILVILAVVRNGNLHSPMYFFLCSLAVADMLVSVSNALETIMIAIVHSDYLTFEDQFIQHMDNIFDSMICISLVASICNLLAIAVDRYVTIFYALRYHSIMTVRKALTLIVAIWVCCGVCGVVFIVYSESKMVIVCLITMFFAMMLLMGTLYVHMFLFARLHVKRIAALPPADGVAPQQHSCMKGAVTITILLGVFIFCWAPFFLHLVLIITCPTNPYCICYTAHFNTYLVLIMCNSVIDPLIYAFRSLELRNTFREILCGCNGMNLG
Experimental details: In vitro agonist potency (EC50) against melanocortin receptor type 3, cAMP in recombinant cell line
Condition: cell line stably transfected with human MC3, 1 hour at 37° C.
Description: Measurement of In Vitro Agonist Potency (EC50) of Compounds Against Melanocortin Receptors Type 1 and 3 (MC1 and MC3). Activation of melanocortin (MC) receptors by agonists results in activation of intracellular adenylate cyclase enzymes that synthesise the second messenger signalling molecule, adenosine 3′,5′-cyclic monophosphate (cAMP). […]
Give a bare numeral; the unit nM is implied.

A selection of reference data follows.
- COc1ccc([C@@H]2CN(c3ccc(C#N)cn3)C[C@H]2C(=O)N2C[C@@H](C)[C@](O)(c3ccc(F)cc3)[C@@H](C)C2)cn1: 129
- C[C@@H]1CN(C(=O)[C@@H]2CN(c3ccc(C#N)nn3)C[C@H]2c2ccc(F)cn2)C[C@H](C)[C@@]1(O)c1ccc(Cl)cc1: 76.6
- CC1CN(C(=O)C2CN(c3ccc(C#N)nn3)CC2c2ccc(F)cn2)CC(C)C1(O)c1ccccc1 (stereo not shown): 193
- COc1ccc(C2CN(c3ccc(C#N)nn3)CC2C(=O)N2CC(C)C(O)(c3ccc(F)cc3)C(C)C2)cn1 (stereo not shown): 323
- C[C@@H]1CN(C(=O)[C@@H]2CN(c3cncc(F)c3)C[C@H]2c2ccc(Cl)cn2)C[C@H](C)[C@@]1(O)c1ccccn1: 1090

Exercise: Fill: EC50 (human MC3 receptor (Homo sapiens, UniProt P41968)) for this molecule CC1CN(C(=O)C2CN(c3ccc(=O)n(C)n3)CC2c2ccc(F)cn2)CC(C)C1(O)c1ccc(F)cc1 (stereo not shown)
Solution: 580

Exercise: Fill: EC50 (human MC3 receptor (Homo sapiens, UniProt P41968)) for this molecule C[C@@H]1CN(C(=O)[C@@H]2CN(c3ccc(C#N)nn3)C[C@H]2c2ccc(C#N)cn2)C[C@H](C)[C@@]1(O)c1ccc(F)cc1
Solution: 50.8

Recorded values, source patent US8138188B2.
